Values compiled from ChEMBL document CHEMBL1138503.

test system: HFF; experiment: Cytotoxicity against HFF cells by neutral red uptake assay; type: cell-based; conditions: human, hff
Give CC50 for every item shown.
One number for each entry, in µM.

INSERT INTO measurements (compound_string, measurement) VALUES
  ('Nc1ncnc2c1ncn2/C=C1\C[C@H]1[C@H](O)CO', 194);

For every item in the list below, what is its measured CC50?
1. Nc1ncnc2c1ncn2/C=C1/C[C@H]1[C@H](O)CO
2. Nc1nc2c(ncn2/C=C2\C[C@H]2[C@@H](O)CO)c(=O)[nH]1
3. Nc1nc2c(ncn2/C=C2/C[C@H]2[C@@H](O)CO)c(=O)[nH]1

Result string:
1. 206
2. 298
3. 299

Query string: Give CC50 (HFF) of the following molecule: `Nc1ncnc2c1ncn2/C=C1\C[C@H]1[C@@H](O)CO`
Result string: 264
